# experimentalTarget: Tubulin (Homo sapiens) (UniProt P68371+Q9H4B7+P0DPH7+P68366+Q13509+Q71U36+P04350+Q3ZCM7+P07437+P68363+Q9BQE3+Q6PEY2+Q13885+Q9BVA1+Q9BUF5)
# methodDescription: Inhibition of tubulin (unknown origin) polymerization at 2 uM by immunoblot analysis
# Assay type: protein-complex assay
Activity calls are given as the source filed them. No cut-off for these calls is given here.
Outcome field: choose from 1 (yes) for active, 0 (no) for inactive

>>> cat("COc1ccc(/C(=C/c2ccc3ccccc3c2)c2nnn[nH]2)cc1OC")
"0 (no)"
>>> cat("COc1ccc(/C=C(/c2cc(OC)c(OC)c(OC)c2)c2nnn[nH]2)cc1O")
"1 (yes)"
>>> cat("COc1ccc(/C=C(/c2ccc([N+](=O)[O-])cc2)c2nnn[nH]2)c2ccccc12")
"1 (yes)"

Field: next compound
Exercise: In this assay, the call recorded for `COc1ccc(/C=C(/c2cc(OC)c(OC)c(OC)c2)c2nnn[nH]2)cc1` was what?
Key: 1 (yes)

Each recorded value in this set is attributed to ChEMBL document CHEMBL4371053.
